# system.under.test: serotonin-2 receptor (Rattus norvegicus)
# Sequence (P14842 whole entry): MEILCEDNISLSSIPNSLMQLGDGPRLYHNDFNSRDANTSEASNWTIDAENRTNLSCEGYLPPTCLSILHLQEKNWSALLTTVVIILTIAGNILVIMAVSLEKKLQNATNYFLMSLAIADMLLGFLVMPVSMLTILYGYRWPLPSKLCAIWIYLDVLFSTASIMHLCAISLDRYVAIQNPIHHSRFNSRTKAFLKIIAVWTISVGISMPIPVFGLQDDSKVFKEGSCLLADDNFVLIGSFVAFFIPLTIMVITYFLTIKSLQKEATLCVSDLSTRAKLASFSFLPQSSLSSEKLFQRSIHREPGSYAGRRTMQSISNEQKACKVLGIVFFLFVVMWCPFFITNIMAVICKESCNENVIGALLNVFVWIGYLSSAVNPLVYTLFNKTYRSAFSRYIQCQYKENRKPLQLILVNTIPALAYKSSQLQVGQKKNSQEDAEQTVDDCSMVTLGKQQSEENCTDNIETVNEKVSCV
pIC50: −log10 of the molar value.

- compound: "COC(=O)c1c2n(c3ccccc13)Cc1ccccc1N1CCN(C)CC21 (stereo not shown)"
  pIC50: "~8.40"
